System: A549
Experiment description: Cytotoxicity against human A549 cells assessed as cell viability after 48 hrs by alamar blue assay
Format: functional, cell-based
Protocol conditions: A549, 48 h
pIC50: −log10 of the molar value.

{"columns": ["Compound smiles", "Experimental target", "pIC50"],
 "data": [
  ["CC(=O)N[C@@H]1C[C@H]2[C@@H]3CC[C@H]([C@H](C)CCCC(C)C)[C@@]3(C)CC[C@@H]2[C@@]2(C)CC[C@H](O)C[C@]12O", "A549", 4.84],
  ["CC(=O)O[C@@H]1C[C@H]2[C@@H]3CC[C@H]([C@H](C)CCCC(C)C)[C@@]3(C)CC[C@@H]2[C@@]2(C)CC[C@H](O)C[C@]12O", "A549", 4.88],
  ["CC(C)CCC[C@@H](C)[C@H]1CC[C@H]2[C@@H]3C/C(=N\\O)[C@@]4(O)C[C@@H](O)CC[C@]4(C)[C@H]3CC[C@]12C", "A549", 4.82],
  ["CC(C)CCC[C@@H](C)[C@H]1CC[C@H]2[C@@H]3CC[C@@]4(O)[C@@H](O)[C@@H](O)CC[C@]4(C)[C@H]3CC[C@]12C", "A549", 4.50],
  ["CC(=O)O[C@@H]1[C@H]2[C@@H]3CC[C@H]([C@H](C)CCCC(C)C)[C@@]3(C)CC[C@@H]2[C@@]2(C)CC[C@H](O)C[C@]2(O)[C@@H]1OC(C)=O", "A549", 4.86],
  ["CC(C)CCC[C@@H](C)[C@H]1CC[C@H]2[C@@H]3[C@@H](O)[C@@H](O)[C@@]4(O)C[C@@H](O)CC[C@]4(C)[C@H]3CC[C@]12C", "A549", 4.76]
]}
